STUDY SYSTEM: human NMB receptor (BB1) (Homo sapiens)
Construct: expressed in transfected cells; membranes prepared from the cells
EXPERIMENTAL PROTOCOL: BB1 binding assay ([125I][Tyr4]bombesin displacement, CHO-K1 membranes)
MEASURED ATTRIBUTE: IC50 (nM)

{"MOLECULE": "C[C@@](Cc1c[nH]c2ccccc12)(NS(=O)(=O)c1ccc(S(=O)(=O)c2ccccc2)s1)C(=O)NCC1(c2ccccn2)CCCCC1 [Example 150]", "EXPERIMENTAL RESULT": 297}
{"MOLECULE": "Cc1noc(C)c1S(=O)(=O)N[C@@](C)(Cc1c[nH]c2ccccc12)C(=O)NCC1(c2ccccn2)CCCCC1 [Example 136]", "EXPERIMENTAL RESULT": 515}
{"MOLECULE": "C[C@@](Cc1c[nH]c2ccccc12)(NS(=O)(=O)c1ccc(Cl)c(Cl)c1)C(=O)NCC1(c2ccccn2)CCCCC1 [Example 125]", "EXPERIMENTAL RESULT": 216}
{"MOLECULE": "COC(=O)c1ccccc1S(=O)(=O)N[C@@](C)(Cc1c[nH]c2ccccc12)C(=O)NCC1(c2ccccn2)CCCCC1 [Example 155]", "EXPERIMENTAL RESULT": 242}
{"MOLECULE": "C[C@@](Cc1c[nH]c2ccccc12)(NS(=O)(=O)c1cnc(Cl)c(Br)c1)C(=O)NCC1(c2ccccn2)CCCCC1 [Example 161]", "EXPERIMENTAL RESULT": 187}
{"MOLECULE": "Cc1ccc(S(=O)(=O)N[C@@](C)(Cc2c[nH]c3ccccc23)C(=O)NCC2(c3ccccn3)CCCCC2)cc1Cl [Example 158]", "EXPERIMENTAL RESULT": 299}

====

STUDY SYSTEM: human GRP receptor (BB2) (Homo sapiens)
Construct: expressed in transfected cells; membranes prepared from the cells
Sequence (P30550 whole entry): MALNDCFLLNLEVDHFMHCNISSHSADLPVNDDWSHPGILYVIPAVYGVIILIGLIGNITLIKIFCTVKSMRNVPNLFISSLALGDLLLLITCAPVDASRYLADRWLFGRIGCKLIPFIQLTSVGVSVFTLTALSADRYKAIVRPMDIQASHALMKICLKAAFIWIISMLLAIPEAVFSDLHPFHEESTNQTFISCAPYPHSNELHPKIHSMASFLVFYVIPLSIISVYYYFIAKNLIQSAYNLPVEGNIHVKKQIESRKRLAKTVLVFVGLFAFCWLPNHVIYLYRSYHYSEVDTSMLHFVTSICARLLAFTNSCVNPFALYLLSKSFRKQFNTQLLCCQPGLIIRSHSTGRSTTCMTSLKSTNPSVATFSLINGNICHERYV
EXPERIMENTAL PROTOCOL: BB2 binding assay ([125I][Tyr4]bombesin displacement, CHO-K1 membranes)
TEST CONTEXT: read-out: hBB2 Ki
Protocol: In the following experiments, measurement of BB1 and BB2 binding was as follows. […] Radioactivity bound was determined using a gamma counter. All competition data was analysed using nonlinear regression utilizing iterative curve-plotting procedures in Prism® (GraphPad Software Inc., San Diego, USA). […]
pKi: −log10 of the molar value.

{"STRUCTURE": "C[C@@](Cc1c[nH]c2ccccc12)(NC(=O)Nc1ccc([N+](=O)[O-])cc1)C(=O)NCC1(c2ccc(N)cc2)CCCCC1", "pKi": 7.34}

====

STUDY SYSTEM: human NMB receptor (BB1) (Homo sapiens, UniProt P28336)
Construct: expressed in transfected cells; membranes prepared from the cells
Sequence (P28336 whole entry): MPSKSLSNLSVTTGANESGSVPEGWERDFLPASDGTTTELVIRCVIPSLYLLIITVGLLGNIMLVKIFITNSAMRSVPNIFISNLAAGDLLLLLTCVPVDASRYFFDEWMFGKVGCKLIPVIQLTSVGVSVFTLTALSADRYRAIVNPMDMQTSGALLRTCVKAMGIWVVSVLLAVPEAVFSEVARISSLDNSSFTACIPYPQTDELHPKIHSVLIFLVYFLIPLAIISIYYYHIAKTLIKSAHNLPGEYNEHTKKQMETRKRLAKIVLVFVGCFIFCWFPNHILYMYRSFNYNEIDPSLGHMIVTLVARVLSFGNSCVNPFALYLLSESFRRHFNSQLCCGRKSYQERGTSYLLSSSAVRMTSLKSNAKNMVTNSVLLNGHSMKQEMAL
EXPERIMENTAL PROTOCOL: BB1 binding assay ([125I][Tyr4]bombesin displacement, CHO-K1 membranes)
TEST CONTEXT: Table 3, N-acyl derivatives of Intermediate III-7
pIC50: −log10 of the molar value.
# maps each entry to its pIC50

{"COMPOUND": "Cc1cccc(CC(=O)N[C@@](C)(Cc2c[nH]c3ccccc23)C(=O)NCC2(c3ccccn3)CCCCC2)c1 [Example 54]", "STUDY SYSTEM": "human NMB receptor (BB1) (Homo sapiens, UniProt P28336)", "pIC50": 6.09}
{"COMPOUND": "Cn1c(C(=O)N[C@@](C)(Cc2c[nH]c3ccccc23)C(=O)NCC2(c3ccccn3)CCCCC2)cc2ccccc21 [Example 70]", "STUDY SYSTEM": "human NMB receptor (BB1) (Homo sapiens, UniProt P28336)", "pIC50": 5.91}
{"COMPOUND": "C[C@@](Cc1c[nH]c2ccccc12)(NC(=O)c1cccc2cccnc12)C(=O)NCC1(c2ccccn2)CCCCC1 [Example 79]", "STUDY SYSTEM": "human NMB receptor (BB1) (Homo sapiens, UniProt P28336)", "pIC50": 5.35}
{"COMPOUND": "C[C@@](Cc1c[nH]c2ccccc12)(NC(=O)c1ccc(Cl)cc1)C(=O)NCC1(c2ccccn2)CCCCC1 [Example 34]", "STUDY SYSTEM": "human NMB receptor (BB1) (Homo sapiens, UniProt P28336)", "pIC50": 5.87}
{"COMPOUND": "COc1ccccc1CC(=O)N[C@@](C)(Cc1c[nH]c2ccccc12)C(=O)NCC1(c2ccccn2)CCCCC1 [Example 85]", "STUDY SYSTEM": "human NMB receptor (BB1) (Homo sapiens, UniProt P28336)", "pIC50": 5.88}
{"COMPOUND": "C[C@@](Cc1c[nH]c2ccccc12)(NC(=O)c1ccc2[nH]nnc2c1)C(=O)NCC1(c2ccccn2)CCCCC1 [Example 73]", "STUDY SYSTEM": "human NMB receptor (BB1) (Homo sapiens, UniProt P28336)", "pIC50": 5.50}
{"COMPOUND": "C[C@@](Cc1c[nH]c2ccccc12)(NC(=O)c1cccc(C#N)c1)C(=O)NCC1(c2ccccn2)CCCCC1 [Example 38]", "STUDY SYSTEM": "human NMB receptor (BB1) (Homo sapiens, UniProt P28336)", "pIC50": 5.69}
{"COMPOUND": "C[C@@](Cc1c[nH]c2ccccc12)(NC(=O)c1cc2ccccc2[nH]1)C(=O)NCC1(c2ccccn2)CCCCC1 [Example 61]", "STUDY SYSTEM": "human NMB receptor (BB1) (Homo sapiens, UniProt P28336)", "pIC50": 6.54}
{"COMPOUND": "C[C@@](Cc1c[nH]c2ccccc12)(NC(=O)Cc1ccc(O)cc1)C(=O)NCC1(c2ccccn2)CCCCC1 [Example 52]", "STUDY SYSTEM": "human NMB receptor (BB1) (Homo sapiens, UniProt P28336)", "pIC50": 5.50}
{"COMPOUND": "Cc1ccsc1C(=O)N[C@@](C)(Cc1c[nH]c2ccccc12)C(=O)NCC1(c2ccccn2)CCCCC1 [Example 74]", "STUDY SYSTEM": "human NMB receptor (BB1) (Homo sapiens, UniProt P28336)", "pIC50": 6.13}
{"COMPOUND": "C[C@@](Cc1c[nH]c2ccccc12)(NC(=O)Cc1cccc(O)c1)C(=O)NCC1(c2ccccn2)CCCCC1 [Example 53]", "STUDY SYSTEM": "human NMB receptor (BB1) (Homo sapiens, UniProt P28336)", "pIC50": 5.84}
{"COMPOUND": "C[C@@](Cc1c[nH]c2ccccc12)(NC(=O)c1ccccc1-n1cccc1)C(=O)NCC1(c2ccccn2)CCCCC1 [Example 81]", "STUDY SYSTEM": "human NMB receptor (BB1) (Homo sapiens, UniProt P28336)", "pIC50": 6.44}
{"COMPOUND": "C[C@@](Cc1c[nH]c2ccccc12)(NC(=O)c1ccncc1)C(=O)NCC1(c2ccccn2)CCCCC1 [Example 58]", "STUDY SYSTEM": "human NMB receptor (BB1) (Homo sapiens, UniProt P28336)", "pIC50": 5.86}
{"COMPOUND": "C[C@@](Cc1c[nH]c2ccccc12)(NC(=O)Cc1ccccc1F)C(=O)NCC1(c2ccccn2)CCCCC1 [Example 55]", "STUDY SYSTEM": "human NMB receptor (BB1) (Homo sapiens, UniProt P28336)", "pIC50": 6.06}
{"COMPOUND": "C[C@@](Cc1c[nH]c2ccccc12)(NC(=O)c1ccc([N+](=O)[O-])cc1)C(=O)NCC1(c2ccccn2)CCCCC1 [Example 36]", "STUDY SYSTEM": "human NMB receptor (BB1) (Homo sapiens, UniProt P28336)", "pIC50": 6.46}
{"COMPOUND": "C[C@@](Cc1c[nH]c2ccccc12)(NC(=O)c1ccsc1)C(=O)NCC1(c2ccccn2)CCCCC1 [Example 65]", "STUDY SYSTEM": "human NMB receptor (BB1) (Homo sapiens, UniProt P28336)", "pIC50": 5.66}
{"COMPOUND": "Cc1cccc(C(=O)N[C@@](C)(Cc2c[nH]c3ccccc23)C(=O)NCC2(c3ccccn3)CCCCC2)c1 [Example 43]", "STUDY SYSTEM": "human NMB receptor (BB1) (Homo sapiens, UniProt P28336)", "pIC50": 5.63}
{"COMPOUND": "C[C@@](Cc1c[nH]c2ccccc12)(NC(=O)Cc1ccccc1[N+](=O)[O-])C(=O)NCC1(c2ccccn2)CCCCC1 [Example 84]", "STUDY SYSTEM": "human NMB receptor (BB1) (Homo sapiens, UniProt P28336)", "pIC50": 5.70}
{"COMPOUND": "COc1ccc(C(=O)N[C@@](C)(Cc2c[nH]c3ccccc23)C(=O)NCC2(c3ccccn3)CCCCC2)cc1 [Example 35]", "STUDY SYSTEM": "human NMB receptor (BB1) (Homo sapiens, UniProt P28336)", "pIC50": 5.54}
{"COMPOUND": "COc1ccc(CC(=O)N[C@@](C)(Cc2c[nH]c3ccccc23)C(=O)NCC2(c3ccccn3)CCCCC2)cc1 [Example 82]", "STUDY SYSTEM": "human NMB receptor (BB1) (Homo sapiens, UniProt P28336)", "pIC50": 5.77}
{"COMPOUND": "COc1ccccc1C(=O)N[C@@](C)(Cc1c[nH]c2ccccc12)C(=O)NCC1(c2ccccn2)CCCCC1 [Example 46]", "STUDY SYSTEM": "human NMB receptor (BB1) (Homo sapiens, UniProt P28336)", "pIC50": 5.59}

From: patent US20020169101A1
